biological target: TYK2 (Homo sapiens, UniProt P29597); experiment: Enzyme screening kinase assay, TYK2; format: biochemical; settings: Data 1; read-out: TYK2 IC50 Data 1
Sequence (P29597 whole entry): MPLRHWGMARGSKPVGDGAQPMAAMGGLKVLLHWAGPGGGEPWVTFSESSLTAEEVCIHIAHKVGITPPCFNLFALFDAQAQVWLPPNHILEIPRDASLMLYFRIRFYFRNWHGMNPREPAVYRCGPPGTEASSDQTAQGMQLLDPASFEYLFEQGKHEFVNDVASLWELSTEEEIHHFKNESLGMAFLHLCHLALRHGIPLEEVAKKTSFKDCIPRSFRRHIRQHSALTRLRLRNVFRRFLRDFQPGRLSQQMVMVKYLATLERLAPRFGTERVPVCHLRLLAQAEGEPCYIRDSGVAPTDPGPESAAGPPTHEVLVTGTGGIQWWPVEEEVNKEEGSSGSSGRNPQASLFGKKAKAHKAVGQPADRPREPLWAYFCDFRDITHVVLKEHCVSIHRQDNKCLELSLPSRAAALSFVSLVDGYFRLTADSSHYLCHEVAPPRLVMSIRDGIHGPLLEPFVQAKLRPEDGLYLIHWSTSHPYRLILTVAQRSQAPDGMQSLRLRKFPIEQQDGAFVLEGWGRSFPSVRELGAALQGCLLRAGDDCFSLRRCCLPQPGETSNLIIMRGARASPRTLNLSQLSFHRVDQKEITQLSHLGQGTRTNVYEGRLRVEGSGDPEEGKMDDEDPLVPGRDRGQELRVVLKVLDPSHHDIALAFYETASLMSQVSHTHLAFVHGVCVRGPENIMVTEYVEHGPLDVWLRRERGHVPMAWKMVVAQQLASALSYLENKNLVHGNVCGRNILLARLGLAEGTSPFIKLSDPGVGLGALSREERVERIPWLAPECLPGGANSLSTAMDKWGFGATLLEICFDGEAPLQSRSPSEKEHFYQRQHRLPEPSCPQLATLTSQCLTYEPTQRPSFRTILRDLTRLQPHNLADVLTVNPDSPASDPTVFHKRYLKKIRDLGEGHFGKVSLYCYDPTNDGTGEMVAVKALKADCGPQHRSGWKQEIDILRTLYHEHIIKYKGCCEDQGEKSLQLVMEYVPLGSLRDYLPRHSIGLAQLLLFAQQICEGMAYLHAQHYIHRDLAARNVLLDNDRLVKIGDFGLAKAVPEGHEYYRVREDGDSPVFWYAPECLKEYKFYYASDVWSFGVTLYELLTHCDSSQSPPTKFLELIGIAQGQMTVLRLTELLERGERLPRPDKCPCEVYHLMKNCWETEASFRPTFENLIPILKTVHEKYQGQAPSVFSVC
pIC50: −log10 of the molar value.
METRIC NAME: pIC50

Some entries whose results are on file:
N#CCNC(=O)c1ccc(-c2ccnc(Nc3ccc(N4CCC[C@]5(CCO5)C4)cc3)n2)cc1 :: 9.16
N#CCNC(=O)c1ccc(-c2ccnc(Nc3ccc(N4CCC5(CCO5)CC4)cc3)n2)cc1 :: 8.29

P. N#CCNC(=O)c1ccc(-c2ccnc(Nc3ccc(N4C[C@@H]5C[C@H]4CO5)cc3)n2)cc1
Q. N#CCNC(=O)c1ccc(-c2ccnc(Nc3ccc(N4CC[C@]5(CCO5)C4)cc3)n2)cc1
R. N#CCNC(=O)c1ccc(-c2ccnc(Nc3ccc(N4CCC[C@@]5(CCO5)C4)cc3)n2)cc1
Query block: Hey, quick one: sort these by pIC50, low to high? Use the labels to give the ranking in the order requested.
Result block: P, Q, R
